Where do the numbers come from? From paper PMC9404792.

systemName: soybean lipoxygenase (LOX) (Glycine max)
Construct: gene LOX1.1
Sequence (P08170 1-839): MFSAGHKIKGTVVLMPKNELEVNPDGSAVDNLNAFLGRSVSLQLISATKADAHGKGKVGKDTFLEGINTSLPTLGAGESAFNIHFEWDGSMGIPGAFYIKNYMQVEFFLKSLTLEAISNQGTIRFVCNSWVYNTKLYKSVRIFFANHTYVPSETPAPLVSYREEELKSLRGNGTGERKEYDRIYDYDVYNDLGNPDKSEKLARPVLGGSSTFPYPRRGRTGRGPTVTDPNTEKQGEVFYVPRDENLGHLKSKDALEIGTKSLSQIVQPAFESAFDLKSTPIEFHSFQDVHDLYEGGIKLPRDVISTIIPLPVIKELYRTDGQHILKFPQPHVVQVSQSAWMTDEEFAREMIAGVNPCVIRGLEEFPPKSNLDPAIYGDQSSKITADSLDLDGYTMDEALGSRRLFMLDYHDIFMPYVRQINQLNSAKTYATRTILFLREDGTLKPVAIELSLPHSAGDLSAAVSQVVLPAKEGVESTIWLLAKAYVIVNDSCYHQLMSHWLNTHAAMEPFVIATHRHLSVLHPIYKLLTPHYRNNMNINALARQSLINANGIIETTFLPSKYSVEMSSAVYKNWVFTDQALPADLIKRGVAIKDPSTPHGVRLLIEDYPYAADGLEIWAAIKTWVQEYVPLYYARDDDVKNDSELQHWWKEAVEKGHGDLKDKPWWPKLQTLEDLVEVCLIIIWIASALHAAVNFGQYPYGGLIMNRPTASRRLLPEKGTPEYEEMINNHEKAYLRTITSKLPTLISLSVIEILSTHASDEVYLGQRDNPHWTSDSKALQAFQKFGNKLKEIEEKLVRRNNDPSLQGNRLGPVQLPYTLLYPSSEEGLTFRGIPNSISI
runDescription: UV assay at […] nm of sodium linoleate conversion to 13-hydroperoxylinoleic acid
Format: biochemical
measurementParameters: read-out: LOX Inhibition (% or IC50 [μM])
recordedEndpoint: IC50 (µM)

1. C/[N+]([O-])=C/c1ccccc1/C=[N+](\[O-])Cc1ccccc1
2. CC(C)(C)/[N+]([O-])=C/c1ccccc1/C=[N+](\[O-])Cc1ccccc1
Hello, I am sorting some records. Could you say if 1 or 2 has the smaller IC50 value? Refer to your chosen entry by its label in the reply.
2
(2: 57.5 µM, 1: 82.5 µM)
